- System: human Factor 11 mRNA
- protocol-text: Dose-dependent inhibition of human Factor 11 in HepG2 cells, electroporation 0.7-20 uM (Example 4)
- Assay type: cell-based
- applied-conditions: 0.7 μM, relative to untreated control cells
Strand notation (5' to 3'): a small letter for the sugar, then the base; units joined by * are phosphorothioate-linked, units joined directly phosphodiester-linked; [ ] holds rarer units or linkages, { } end groups; capitals alone tell only the bases. e = 2'-O-(2-methoxyethyl) (MOE); [5mC] = 5-methylcytosine; d = 2'-deoxy (DNA)
I would appreciate it if you labelled entries T when percent inhibition of Factor 11 at 0.7 μM is 10% or higher, otherwise F.

| substance | class-name |
| --- | --- |
| 416926 (antisense eT*eG*eG*dT*dG*d[5mC]*dA*d[5mC]*dA*dG*dT*dT*dT*d[5mC]*dT*dG*dG*e[5mC]*eA*eG) [compound 416926] | T |
| 416908 (antisense eG*e[5mC]*eA*dA*d[5mC]*d[5mC]*dG*dG*dG*dA*dT*dG*dA*dT*dG*dA*dG*eT*eG*e[5mC]) [compound 416908] | F |
| 416892 (antisense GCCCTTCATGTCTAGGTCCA; 3-14-3 chimeric gapmer, further chemistry not given here) [compound 416892] | T |
| 416922 (antisense eG*e[5mC]*eA*d[5mC]*dA*dG*dT*dT*dT*d[5mC]*dT*dG*dG*d[5mC]*dA*dG*dG*e[5mC]*e[5mC]*eT) [compound 416922] | T |
| 412206 (antisense e[5mC]*e[5mC]*eG*eT*eG*d[5mC]*dA*dT*d[5mC]*dT*dT*dT*d[5mC]*dT*dT*eG*eG*e[5mC]*eA*eT) [compound 412206] | T |
| 416856 (antisense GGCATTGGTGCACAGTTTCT; 5-10-5 gapmer, further chemistry not given here) [compound 416856] | F |

----------
substances and their reported bleeding time
- protocol-text: Bleeding assay, Surgicutt Jr. device (Example 45)
- Type: in vivo, cynomolgus monkeys
- Set-up: unit not given here
- applied-conditions: day −14; escalating dose regimen
assay-metric: bleeding time

| substance | assay-metric | obs-value |
| --- | --- | --- |
| ISIS 416838: MOE gapmer, nucleobases 1018 to 1042 of SEQ ID NO: 1 (Table 6) (antisense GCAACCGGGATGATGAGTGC; MOE gapmer, wing and gap sizes not given here) | bleeding time | 200 |
| ISIS 417002: MOE gapmer, nucleobases 1275 to 1318 of SEQ ID NO: 1 (Table 8) (antisense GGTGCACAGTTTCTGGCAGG; MOE gapmer, wing and gap sizes not given here) | bleeding time | 185 |
| ISIS 416858: MOE gapmer, nucleobases 1275 to 1318 of SEQ ID NO: 1 (Table 8) (antisense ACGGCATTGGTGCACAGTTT; MOE gapmer, wing and gap sizes not given here) | bleeding time | 154 |
| ISIS 416850: MOE gapmer, nucleobases 1275 to 1318 of SEQ ID NO: 1 (Table 8) (antisense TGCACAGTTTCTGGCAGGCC; MOE gapmer, wing and gap sizes not given here) | bleeding time | 172 |
| ISIS 416864: MOE gapmer, nucleobases 1275 to 1318 of SEQ ID NO: 1 (Table 8) (antisense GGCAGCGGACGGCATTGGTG; MOE gapmer, wing and gap sizes not given here) | bleeding time | 166 |

----------
substances and their reported platelet count
- protocol-text: Hematology assays in cynomolgus monkeys (Example 45)
- Format: in vivo
- applied-conditions: day 64

| substance | platelet count, µL⁻¹ |
| --- | --- |
| ISIS 416838: MOE gapmer, nucleobases 1018 to 1042 of SEQ ID NO: 1 (Table 6) (antisense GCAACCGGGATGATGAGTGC; MOE gapmer, wing and gap sizes not given here) | 358000 |
| ISIS 416864: MOE gapmer, nucleobases 1275 to 1318 of SEQ ID NO: 1 (Table 8) (antisense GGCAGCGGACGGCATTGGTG; MOE gapmer, wing and gap sizes not given here) | 383000 |
| ISIS 417002: MOE gapmer, nucleobases 1275 to 1318 of SEQ ID NO: 1 (Table 8) (antisense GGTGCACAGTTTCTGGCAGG; MOE gapmer, wing and gap sizes not given here) | 436000 |
| ISIS 416858: MOE gapmer, nucleobases 1275 to 1318 of SEQ ID NO: 1 (Table 8) (antisense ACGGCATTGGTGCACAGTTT; MOE gapmer, wing and gap sizes not given here) | 295000 |
| ISIS 416850: MOE gapmer, nucleobases 1275 to 1318 of SEQ ID NO: 1 (Table 8) (antisense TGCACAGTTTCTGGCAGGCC; MOE gapmer, wing and gap sizes not given here) | 496000 |

----------
- protocol-text: Hematology assays in cynomolgus monkeys (Example 46)
- Format: in vivo
- applied-conditions: Day 55
Strand notation (5' to 3'): a small letter for the sugar, then the base; units joined by * are phosphorothioate-linked, units joined directly phosphodiester-linked; [ ] holds rarer units or linkages, { } end groups; capitals alone tell only the bases. e = 2'-O-(2-methoxyethyl) (MOE); [5mC] = 5-methylcytosine; d = 2'-deoxy (DNA)

| substance | neutrophils |
| --- | --- |
| ISIS 449711: 3-8-3, 4-8-4, 2-10-2, 3-10-3 or 4-10-4 MOE microwalk gapmer (Table 46) (antisense eA*e[5mC]*dA*dG*dT*dT*dT*d[5mC]*dT*dG*dG*d[5mC]*eA*eG) | 70% |
| ISIS 416850: MOE gapmer, nucleobases 1275 to 1318 of SEQ ID NO: 1 (Table 8) (antisense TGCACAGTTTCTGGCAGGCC; MOE gapmer, wing and gap sizes not given here) | 108% |

----------
substances and their reported % inhibition
- Test system: human Factor 11 mRNA
- protocol-text: Antisense inhibition of human Factor 11 in HepG2 cells by microwalk gapmers, lipofectin, 75 nM (Example 3)
- Format: cell-based
- applied-conditions: HepG2, lipofectin, ~24 h, gapmers targeted to nucleobases 656 to 704 of SEQ ID NO: 1
Strand notation (5' to 3'): a small letter for the sugar, then the base; units joined by * are phosphorothioate-linked, units joined directly phosphodiester-linked; [ ] holds rarer units or linkages, { } end groups; capitals alone tell only the bases. e = 2'-O-(2-methoxyethyl) (MOE); [5mC] = 5-methylcytosine; d = 2'-deoxy (DNA)

| substance | assay-system | % inhibition |
| --- | --- | --- |
| 416971 (antisense eA*eT*dG*d[5mC]*d[5mC]*d[5mC]*dT*dT*d[5mC]*dA*dT*dG*dT*d[5mC]*dT*eA*eG*eG*eT*e[5mC]) [compound 416971] | human Factor 11 mRNA | 83% |
| 416821 (antisense eT*e[5mC]*eA*eT*eG*dT*d[5mC]*dT*dA*dG*dG*dT*d[5mC]*d[5mC]*dA*e[5mC]*eA*eT*eA*eA) [compound 416821] | human Factor 11 mRNA | 84% |
| 416818 (antisense eT*eG*eT*e[5mC]*eT*dA*dG*dG*dT*d[5mC]*d[5mC]*dA*d[5mC]*dA*dT*eA*eA*eA*eT*eG) [compound 416818] | human Factor 11 mRNA | 76% |

----------
- applied-conditions: mouse, in vivo, sc, 50 mg/kg
substances and their reported BUN

| substance | BUN [mg/dL] |
| --- | --- |
| ISIS 416866: MOE gapmer, nucleobases 1275 to 1318 of SEQ ID NO: 1 (Table 8) (antisense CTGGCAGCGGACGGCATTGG; MOE gapmer, wing and gap sizes not given here) | 22 |
| ISIS 416867: MOE gapmer, nucleobases 1275 to 1318 of SEQ ID NO: 1 (Table 8) (antisense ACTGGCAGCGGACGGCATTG; MOE gapmer, wing and gap sizes not given here) | 20 |

----------
- protocol-text: Hematology assays in cynomolgus monkeys (Example 45)
- Format: in vivo
- applied-conditions: day 15
substances and their reported neutrophils
assay-metric: neutrophils (%)

| substance | obs-value |
| --- | --- |
| ISIS 416850: MOE gapmer, nucleobases 1275 to 1318 of SEQ ID NO: 1 (Table 8) (antisense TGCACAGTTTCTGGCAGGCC; MOE gapmer, wing and gap sizes not given here) | 58 |
| ISIS 416858: MOE gapmer, nucleobases 1275 to 1318 of SEQ ID NO: 1 (Table 8) (antisense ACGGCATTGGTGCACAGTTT; MOE gapmer, wing and gap sizes not given here) | 54 |
| ISIS 416864: MOE gapmer, nucleobases 1275 to 1318 of SEQ ID NO: 1 (Table 8) (antisense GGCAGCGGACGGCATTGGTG; MOE gapmer, wing and gap sizes not given here) | 59 |
| ISIS 416838: MOE gapmer, nucleobases 1018 to 1042 of SEQ ID NO: 1 (Table 6) (antisense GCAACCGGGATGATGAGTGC; MOE gapmer, wing and gap sizes not given here) | 43 |
| ISIS 417002: MOE gapmer, nucleobases 1275 to 1318 of SEQ ID NO: 1 (Table 8) (antisense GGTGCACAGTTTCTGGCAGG; MOE gapmer, wing and gap sizes not given here) | 57 |
